# TGI listing for each entry below
tested on: T-47D breast; test: NCI tumour cell line growth inhibition, 48 h

Sample records with TGI:
| Compound | TGI |
| --- | --- |
| Cc1ccc(C2=CC(=O)/C(=C\C(=O)c3ccc(Cl)cc3)O2)cc1 | 24.3 µM |
| C=C1C(O)CC[C@]2(C)C1C1OC(C)(C)O[C@]13CC(=O)C(C)=C([C@H]1OC(C)(C)OC12)C3(C)C (stereo partly drawn) | > 100 µM |

Now take the following compound into account.
Problem: # query: TGI | item COC1CC(OC2CCC3(C)C(=CCC4C3C(OC(C)=O)C(OC(=O)CC(C)C)C3(C)C(C(C)=O)CCC43O)C2)OC(C)C1OC1CC(OC)C(OC2CC(OC)C(OC3OC(C)C(OC4OC(CO)C(O)C(O)C4O)C(OC)C3O)C(C)O2)C(C)O1 (stereo not drawn) | system: T-47D breast
Result: > 75 µM

----------
system: IGROV1 ovarian; assay: NCI tumour cell line growth inhibition, 48 h
# TGI annotations

| Compound | Measurement label | Data value |
| --- | --- | --- |
| CCCCN(CC)CC(C(C)=O)c1c(O)c2ccccc2oc1=O (stereo not drawn) | TGI | > 100 µM |
| CC1(C)[C@H]2CC[C@@]13C(=O)N1C(=O)O[C@@H]([C@H]1Cl)C(Cl)(COCc1ccccc1)C(=O)OCCO[C@H]3C2 (stereo partly drawn) | TGI | > 100 µM |
| COc1ccc(-c2cc(-c3ccccc3)[nH]c(=S)c2C#N)cc1 | TGI | > 100 µM |
| Nc1ncnc2c1ncn2CC(O)CO (stereo not drawn) | TGI | > 100 µM |
| Nc1nn2c(=O)c3ccccc3nc2s1 | TGI | > 100 µM |
| O=C1c2ccccc2NC(=S)[C@@H]2CCCN12 | TGI | > 100 µM |
| CC(=O)c1ccc(O)c(CN(C2CCCCC2)C2CCCCC2)c1O | TGI | > 100 µM |
| C\C(=N/N=C1/C(=C\N(C)C)C(=O)NC(=O)N1C)c1ccc(Cl)cc1 | TGI | > 100 µM |

Problem: Requested read-out: TGI. Entry: C[N+](C)(C)CC1CCCCC1O (stereo not drawn)
Result: > 100 µM

Problem: Record: CCOC(=O)/C(C#N)=C\C=C(/Cl)c1ccc(Cl)cc1
Result: 27.1 µM

Problem: Now try CC(=O)OCc1c(O)c2c(c(O)c1COC(C)=O)C(=O)C=CC2=O .
Result: 30.5 µM

Problem: And for CSC1=Nc2ccccc2N=C(c2ccc(Cl)cc2)C1 ?
Result: > 100 µM

Problem: What do you get for CC(=O)OCC1OC(N2C(=O)C(=O)c3ccccc32)C(OC(C)=O)C(OC(C)=O)C1OC(C)=O (stereo not drawn) ?
Result: > 100 µM

----------
tested on: TK-10 renal; assay: NCI tumour cell line growth inhibition, 48 h
TGI for assorted compounds

Use the examples below as a reference point.
| Compound | TGI |
| --- | --- |
| CC(C)CCC1(CCN)C(=O)NC(=O)NC1=O | > 100 µM |
| COc1ccc(/C(=N\NC(=S)NN)C(c2ccc(OC)cc2)C2C(=O)Oc3ccccc32)cc1 (stereo not drawn) | > 100 µM |

Problem: // returns reported TGI for input CC1(C)CC2C(=O)c3ccccc3NC2c2ccccc21 (stereo not drawn)
Result: > 100 µM

----------
test system: SK-MEL-28 melanoma; test: NCI tumour cell line growth inhibition, 48 h
Measurement label: TGI

| Compound | Test system | TGI |
| --- | --- | --- |
| N#Cc1nc(NC(=O)c2ccccc2C(=O)O)c(C#N)[nH]1 | SK-MEL-28 melanoma | > 100 µM |
| COc1cc2c(c(O)c1OC)C(=O)C(Cc1ccc(O)cc1)CO2 (configuration not stated) | SK-MEL-28 melanoma | > 100 µM |
| O=c1oc2ccc(I)cc2c(=O)n1-c1ccc(Cl)cc1F | SK-MEL-28 melanoma | 2.98 µM |
| C=C(C)C1C/C=C(/C)CCCC2(CCC3=C(CC(C(=C)C)C/C=C(/C)CCC3)O2)C(=O)C1 (configuration not stated) | SK-MEL-28 melanoma | > 100 µM |
| Nc1nn2c(=O)c3ccccc3nc2s1 | SK-MEL-28 melanoma | > 100 µM |

Problem: Quick check: TGI on SK-MEL-28 melanoma, item C=Cc1ccccc1C1(O)C=CC(OC)(OC)C=C1 ?
Result: 20.8 µM

Problem: Can you check CNC(=O)CCCNC(=O)CCCC(=O)N(C)C next?
Result: > 100 µM

Problem: Subsequent entry: CCOC(=O)NC(=O)c1cn(CCN2CCN(C(=O)CCCCCCCCCCC(=O)N3CCN(CCn4cc(C(=O)NC(=O)OCC)c(=O)[nH]c4=O)CC3)CC2)c(=O)[nH]c1=O
Result: > 100 µM

Problem: Would you mind doing CN1CCN(c2cc3nsnc3c3nsnc23)CC1 as well?
Result: > 10 µM

Problem: Another compound to look at: O=C1CCCCN1CCCCC#Cc1cccc(C#Cc2cccnc2)c1
Result: > 100 µM

Problem: Ok, now C/C(=N/NC(=O)C[N+](C)(C)C)C(CN(C)C)C(=O)Nc1ccccc1 (configuration not stated)
Result: > 100 µM

Problem: Same thing, different compound: Cc1cc(I)cc(CN(C)CCCN2CCCC2)c1O
Result: 29.9 µM

----------
test system: RXF 393 renal; assay: NCI tumour cell line growth inhibition, 48 h; in the data active means GI50 below about 0.43 µM; inactive means the rest
# valid calls are active, inactive; nothing else

# count of solved cases: 4
| Molecule | Test system | Label value |
| --- | --- | --- |
| COc1ccc(OC)c(Cn2cc3c(c2-c2ccccc2)CCc2cnoc2-3)c1 | RXF 393 renal | inactive |
| CCCCn1c(-c2ccc(C(=O)O/N=C(\N)c3ccc4c(c3)OCO4)cc2)nc(-c2ccccc2)c1-c1ccccc1 | RXF 393 renal | inactive |
| O=S(=O)(CCCl)c1ccc(Cl)cc1 | RXF 393 renal | inactive |
| C=C1C(=O)O[C@H]2[C@H]1CC/C(C=Nc1c(N)cc(C(F)(F)F)cc1Br)=C\CC[C@@]1(C)O[C@@H]21 | RXF 393 renal | inactive |

Problem: Dear all, I need the recorded test outcome for Cc1ccc(NC(=O)c2cc(S(=O)(=O)N3C(=O)NC(=O)NS3(=O)=O)c(S)cc2Cl)cc1 , thank you.
Result: inactive

Problem: Same lookup for Cc1ccc(-c2nc3nc(-c4ccc(F)cc4)nc(N4CCCNCC4)c3o2)cc1 , please.
Result: inactive

Problem: // same read-out, input: COC(=O)C1(C)Cc2cc(OC(C)=O)c(OC(C)=O)cc2N1 (stereo not given)
Result: inactive

Problem: Check CN1/C(=C\C=C\C2=[N+](C)c3ccccc3C2(C)C)C(C)(C)c2ccccc21 too.
Result: active

Problem: Next entry: C=C1C(=O)O[C@H]2[C@H]1CC/C(COC(=O)NCC(C)c1ccc(CC(C)C)cc1)=C\CC[C@@]1(C)O[C@@H]21 (stereo not given in full)
Result: inactive

Problem: Would you kindly repeat that for O=c1oc2ccc(I)cc2c(=O)n1-c1ccc(Cl)cc1F ?
Result: inactive

----------
system: CAKI-1 renal; assay: NCI tumour cell line growth inhibition, 48 h
Measurement label: TGI

// worked examples, TGI included
| Compound | TGI |
| --- | --- |
| CC(NC(=O)N(C)C)NC(=O)N(C)C | > 10 µM |
| CN(C)C(=O)O[C@H]1CN[C@H](C#Cc2cc3ncnc(Nc4ccc(OCc5cccc(F)c5)c(Cl)c4)c3s2)C1 | > 25 µM |
| CC(=O)c1ccc2c(c1)CC1(C2)Cc2ccccc2C1=O (stereo not drawn) | > 100 µM |

Okay, now this compound:
Problem: For the compound CN(C)CCNC(=O)Cn1ccc(=O)c2c([N+](=O)[O-])cccc21 , what TGI is on record?
Result: > 100 µM

----------
test system: UO-31 renal; test: NCI tumour cell line growth inhibition, 48 h
Entries and their measured TGI follow.

| Smiles data | TGI |
| --- | --- |
| O=S(=O)(NCCCNc1nccc(-c2c(-c3ccc(F)cc3)nc3sccn23)n1)c1ccc2ccccc2c1 | > 100 µM |
| C=C1C(=O)O[C@H]2[C@H]1CC/C(C=Nc1c(N)cc(C(F)(F)F)cc1Br)=C\CC[C@@]1(C)O[C@@H]21 | 2.52 µM |
| S=c1cc(-c2ccc3c(c2)OCO3)s[nH]1 | > 100 µM |
| Cc1ccc(-c2nc3nc(-c4ccc(F)cc4)nc(N4CCCNCC4)c3o2)cc1 | 2.79 µM |
| O=c1cc(-c2cc(O)c(O)c(-c3c(O)cc4oc(-c5ccc(O)c(O)c5)cc(=O)c4c3O)c2)oc2cc(O)cc(O)c12 | > 25 µM |

Problem: Give its TGI value. Item: COc1nc(C#CC(C)(C)C)nc(OC)n1
Result: > 100 µM

Problem: // query: CC(NC(=O)N(C)C)NC(=O)N(C)C
Result: > 10 µM

Problem: What do we get for CSC(=NCCc1c[nH]c2ccccc12)NC#N ?
Result: > 100 µM

Problem: Ok, now O=C(Nc1ccc(Cl)c(Cl)c1)NS(=O)(=O)c1cnccc1Oc1ccc(F)cc1
Result: 9.51 µM
